Source of measurements: ChEMBL document CHEMBL4342415

Kindly supply the reported solubility values for the records listed here.
EXPERIMENT_DESCRIPTION: Solubility in water by HPLC analysis
Type: physicochemical
Give me the value, and tack the unit on after it.

[ask] What value of solubility has been reported for the following compound? "COc1ncc(-c2ccc(-c3cnc4c(c3)CN(C)C4=O)s2)cc1[N-]S(=O)(=O)c1ccccc1[N+](=O)[O-].[Na+]"
[reply] 4810 µg/mL

[ask] Tell me the measured solubility of "COc1ncc(-c2ccc(-c3cnc4c(c3)CN(C)C4=O)s2)cc1[N-]S(=O)(=O)c1ccccc1C(F)(F)F.[Na+]" , please.
[reply] 7340 µg/mL

[ask] // solubility lookup, key: "COc1ncc(-c2ccc(-c3cnc4c(c3)CN(C)C4=O)s2)cc1[N-]S(=O)(=O)c1ccc(F)cc1F.[Na+]"
[reply] 18300 µg/mL

[ask] Entry "O=C1NCc2ncc(-c3ccc(-c4cncc([N-]S(=O)(=O)c5ccc(F)cc5F)c4)s3)cc21.[Na+]" has what solubility?
[reply] 3770 µg/mL

[ask] If you can, please state the reported solubility value of "CN1Cc2cc(-c3ccc(-c4cncc([N-]S(=O)(=O)c5ccc(F)cc5F)c4)s3)cnc2C1=O.[Na+]" .
[reply] 20300 µg/mL

[ask] Would you kindly share the measured solubility for "O=C1NCc2cc(-c3ccc(-c4cncc([N-]S(=O)(=O)c5ccc(F)cc5F)c4)s3)cnc21.[Na+]" ?
[reply] 1130 µg/mL

[ask] Give the measured solubility of "CN1Cc2cc(-c3ccc(-c4cncc([N-]S(=O)(=O)c5cccc(C(F)(F)F)c5)c4)s3)cnc2C1=O.[Na+]" .
[reply] 20300 µg/mL

[ask] If you can, please state the reported solubility value of "CN1Cc2cc(-c3ccc(-c4cncc([N-]S(=O)(=O)c5ccccc5C(F)(F)F)c4)s3)cnc2C1=O.[Na+]" .
[reply] 4280 µg/mL

====

Exercise: state measured viability at 24 h, 10 µM for each of the molecules provided.
EXPERIMENT_DESCRIPTION: Toxicity in human KHYG-1 cells assessed as cell viability at 10 uM after 24 h by trypan blue exclusion assay relative to control
Type: cell-based
RECORDED_CONDITIONS: read-out: Activity
Give the value in % but do not write % after it.

[ask] Which viability at 24 h, 10 µM is listed for "CN1Cc2cc(-c3ccc(-c4cncc(NS(=O)(=O)c5ccc(F)cc5F)c4)s3)cnc2C1=O" ?
[reply] 99.6

[ask] Given the molecule "COc1ncc(-c2ccc(-c3cnc4c(c3)CN(C)C4=O)s2)cc1NS(=O)(=O)c1ccc(F)cc1F" , what is its reported viability at 24 h, 10 µM?
[reply] 90.6

[ask] Look up viability at 24 h, 10 µM for this molecule: "CN1Cc2cc(-c3ccc(-c4cncc(NS(=O)(=O)c5ccccc5C(F)(F)F)c4)s3)cnc2C1=O"
[reply] 100

[ask] Could you tell me which viability at 24 h, 10 µM is on file for "O=C1NCc2cc(-c3ccc(-c4cncc(NS(=O)(=O)c5ccc(F)cc5F)c4)s3)cnc21" ?
[reply] 49

[ask] Find the recorded viability at 24 h, 10 µM belonging to "O=C1NCc2ncc(-c3ccc(-c4cncc(NS(=O)(=O)c5ccc(F)cc5F)c4)s3)cc21" and report it.
[reply] 100

[ask] Please look up its viability at 24 h, 10 µM: "COc1ncc(-c2ccc(-c3cnc4c(c3)CN(C)C4=O)s2)cc1NS(=O)(=O)c1ccccc1[N+](=O)[O-]"
[reply] 95.8

[ask] If you can, please state the reported viability at 24 h, 10 µM value of "COc1ncc(-c2ccc(-c3cnc4c(c3)CN(C)C4=O)s2)cc1NS(=O)(=O)c1ccccc1C(F)(F)F" .
[reply] 95.8

[ask] viability at 24 h, 10 µM for "CN1Cc2cc(-c3ccc(-c4cncc(NS(=O)(=O)c5cccc(C(F)(F)F)c5)c4)s3)cnc2C1=O" ?
[reply] 97.8
